Below is a list of entries, each paired with its recorded log10(solubility) value.
- assay-protocol: Solubility
- Assay type: physicochemical
- conditions-used: aqueous buffer; 0.1 M phosphate buffer pH 6.5; read-out: Solubility buffer
A difference of one corresponds to tenfold solubility; all values are log10 with solubility in µg/mL.

// solved cases for log10(solubility) follow
What log10(solubility) value was documented for this compound, CC(=O)Nc1ccc(-c2cn(C3C(O)[C@@H](CO)OC(S[C@@H]4OC(CO)[C@H](O)C(n5cc(-c6cc(F)c(F)c(F)c6)nn5)C4O)[C@@H]3O)nn2)cn1 (stereo in doubt) [Example S8f] ?
2.89

What log10(solubility) value was documented for this compound, OCC1O[C@@H](SC2O[C@H](CO)C(O)C(n3cc(-c4cccnc4)nn3)[C@H]2O)C(O)C(n2cc(-c3cc(F)c(F)c(F)c3)nn2)[C@H]1O (stereo in doubt) [Example S8a] ?
1.61

What log10(solubility) value was documented for this compound, OCC1O[C@@H](SC2O[C@H](CO)C(O)C(n3cc(-c4ncc(C(F)(F)F)cc4Cl)nn3)[C@H]2O)C(O)C(n2cc(-c3ncc(C(F)(F)F)cc3Cl)nn2)[C@H]1O (stereo in doubt) [Example S4d] ?
2.30

What log10(solubility) value was documented for this compound, OCC1O[C@@H](SC2O[C@H](CO)C(O)C(n3cc(-c4ccccn4)nn3)[C@H]2O)C(O)C(n2cc(-c3ccccn3)nn2)[C@H]1O (stereo in doubt) [Example S4f] ?
2.65

From here, focus on the item given below.
What log10(solubility) value was documented for this compound, Nc1ccc(-c2cn(C3C(O)[C@@H](CO)OC(S[C@@H]4OC(CO)[C@H](O)C(n5cc(-c6cc(F)c(F)c(F)c6)nn5)C4O)[C@@H]3O)nn2)cn1 (stereo in doubt) [Example S8g] ?
3.26
